FYI, the data here is from ChEMBL document CHEMBL1201862.

- System: MDA-MB-231
- protocol description: NCI tumour cell line growth inhibition, 48 h
The source made the active and inactive calls. No stated cut-off is given here; in the data, active = GI50 up to about 1.1 µM and inactive = higher.
readout type: GI50

> print(dat)
                                   compound  readout.type       reported.value
1  COc1nc2ccc(CNc3ccc(C(=O)NC(CCC(=O)O)C(=O)O)cc3)cc2nc1OC (stereo not given)          GI50  > 100 µM (inactive)
2   Fc1cc(-c2cc(-c3ccccc3)n[nH]2)c(Cl)cc1Cl          GI50   55.5 µM (inactive)
3  COC(=O)C1(Cc2ccccc2)Cc2cc3c(cc2C1O)CCC3 (stereo not given)          GI50   18.3 µM (inactive)
4  N#CC1(C#N)NC(c2cccnc2)C(C#N)(C#N)NC1c1cccnc1 (stereo not given)          GI50  > 100 µM (inactive)

Moving on to the next compound.
Prompt line: So what does the record say about GI50 for O=[N+]([O-])c1ccc(C(Nc2ccccc2)P(c2ccccc2)c2ccccc2)cc1 (stereo not given) ?
Response line: > 100 µM (inactive)

* * *

- Tested on: RXF 393
- protocol description: NCI tumour cell line growth inhibition, 48 h
Active and inactive are the calls of the source. Cut-off read from the data, not from the text of the source: active = GI50 up to about 1.1 µM and inactive = higher.
Thanks in advance; please answer with one of these: active, inactive

A selection of reference data follows.
> print(dat)
                                   molecule  target.system  class.label
1                    c1ccc2cc3n[se]nc3cc2c1        RXF 393     inactive
2        O=c1[nH]c2c(c3ccccc13)CCc1ccccc1-2        RXF 393     inactive
3  COc1ccc(Nc2nc3cc(C(F)(F)F)ccc3nc2C(=O)O)cc1OC        RXF 393     inactive
4           COCOCc1cc(OCc2ccccc2)c(OC)cc1Br        RXF 393     inactive
5            N#CC(C#N)=Cc1cccc(Oc2ccccc2)c1        RXF 393     inactive

Prompt line: Check the results log: what was the call for `COC(=O)C(=O)CC(=O)CCn1ncc(Cl)c(Cl)c1=O` ?
Response line: inactive

Prompt line: Another molecule to check: `COc1ccc(/C=c2\c(=O)[nH]c3nc4ccccc4c(=O)n23)cc1`
Response line: inactive

* * *

- System: SK-OV-3
- protocol description: NCI tumour cell line growth inhibition, 48 h
Active and inactive are the calls of the source. No stated cut-off is given here; in the data, active = GI50 up to about 1.1 µM and inactive = higher.
Entries and their measured GI50 follow.

For orientation, consider the following solved cases.
molecule	reported value
O=C1C(Cl)N(c2ccccc2)C1c1c[nH]c2ccccc12 (stereo unspecified)	> 100 µM (inactive)
CCN(CC)CCNC(=O)c1ccccc1Nc1c(Cl)cccc1Cl	16.7 µM (inactive)
O=C(Cc1ccc(OCc2cccc(Cl)c2)cc1)NO	29.8 µM (inactive)

Moving on to the next molecule.
Prompt line: So what does the record say about GI50 for CC(=O)OC1(C#N)CC2OC1C1NC21 (stereo unspecified) ?
Response line: > 100 µM (inactive)

* * *

- Test system: UACC-62
- protocol description: NCI tumour cell line growth inhibition, 48 h
The source made the active and inactive calls. Rule as the data show it: active = GI50 up to about 1.1 µM and inactive = higher.
Thanks in advance; please answer with one of these: YES for active, NO for inactive

compound	target system	class label
N#CC(C#N)=Cc1cccc(Oc2ccccc2)c1	UACC-62	NO
CC(N/N=C(\S)N1CCCC1)c1cccnn1 (configuration not stated)	UACC-62	YES
C/C(=N\NC(=S)N1CCN(c2ccccn2)CC1)c1ccccn1	UACC-62	YES
O=C(/C=C/c1ccc(OCCCOc2ccc(/C=C/C(=O)c3ccccc3)cc2)cc1)c1ccccc1	UACC-62	NO
[O-][n+]1c2cc(CN3CCOCC3)c(CN3CCOCC3)cc2[n+]([O-])c2c(O)cccc21	UACC-62	NO
CC(=O)OCC1OC(n2c(-c3ccc(C)cc3)cc(-c3ccco3)c(C#N)c2=S)C(OC(C)=O)C(OC(C)=O)C1OC(C)=O (configuration not stated)	UACC-62	NO
COc1ccc(-c2nc3ncccn3c2-c2ccc([S+](C)[O-])cc2)cc1 (configuration not stated)	UACC-62	NO
COc1cc2c(cc1OCCCC(=O)Nc1cc(C(=O)Nc3cc(C(=O)NCCCN(C)C)n(C)n3)n(C)n1)N=CC1CCCN1C2=O (configuration not stated)	UACC-62	NO

Prompt line: Check the results log: what was the call for `O=[N+]([O-])C(=C(c1ccccc1)c1ccccc1)[N+](=O)[O-]` ?
Response line: NO

Prompt line: Another compound to check: COc1ccc(N2C(=O)C3c4[nH]c5ccccc5c4C4CCC(c5ccccc5)CC4C3C2=O)cc1 (configuration not stated)
Response line: NO

Prompt line: Another compound to check: `COC(=O)c1c(OC(C)=O)ccc2c1c1c(OC(C)=O)c3ccccc3c(OC(C)=O)c1n2Cc1ccccc1`
Response line: NO

* * *

Entries and their measured GI50 follow.
- Test system: LOX IMVI
- protocol description: NCI tumour cell line growth inhibition, 48 h
The source made the active and inactive calls. No stated cut-off is given here; in the data, active = GI50 up to about 1.1 µM and inactive = higher.

For orientation, consider the following solved cases.
> print(dat)
                        structure.as.smiles  target.system  readout.type       reported.value
1          c1ccc(Cc2cc(-c3ccccc3)[nH]n2)cc1       LOX IMVI          GI50   15.1 µM (inactive)
2  COC1=C(OC)C(=O)C(Cc2c(Cl)nc3n2CCS3)=C(C)C1=O       LOX IMVI          GI50   6.35 µM (inactive)
3        Cc1ccc(-c2cc(O)c3nc4ccccc4n3c2)cc1       LOX IMVI          GI50     75 µM (inactive)
4        Cc1c(-c2ccccc2)cc(O)c2nc3ccccc3n12       LOX IMVI          GI50   4.99 µM (inactive)
5  Cc1cc2nc3c(C#N)c(-c4ccccc4)cc(Nc4ccc(Cl)cc4)n3c2cc1C       LOX IMVI          GI50  > 100 µM (inactive)

Moving on to the next molecule.
Prompt line: So what does the record say about GI50 for `CC(/C=N/N(C)C1=NCCCN1)=N/N(C)C1=NCCCN1` ?
Response line: > 100 µM (inactive)

* * *

- System: SK-MEL-2
- protocol description: NCI tumour cell line growth inhibition, 48 h
The source made the active and inactive calls. No stated cut-off is given here; in the data, active = GI50 up to about 1.1 µM and inactive = higher.
Thanks in advance; please answer with one of these: class 1 (active), class 0 (inactive)

A selection of reference data follows.
compound	target system	class label
Cc1cn(C2CC(N=[N+]=[N-])C(COP(=O)(O)OCC3OC(n4cc(F)c(=O)[nH]c4=O)CC3O)O2)c(=O)[nH]c1=O (configuration not stated)	SK-MEL-2	class 0
CCC(O)CC1OC2(CCC1C)CC1OC(=O)/C=C\C(C)(O)C(O)C(C)C(O)C(OC3CC(OC)C(O)C(C)O3)C(O)C(C)(O)CCC/C=C/C3CC(C)COC3(O)CC(O2)C1C (configuration not stated)	SK-MEL-2	class 0

Prompt line: Check the results log: what was the call for `CCCCOCCOC1=CC(=O)c2c(O)ccc(O)c2C1=O` ?
Response line: class 0

Prompt line: Another compound to check: `C(=N\N=C1NCCN1)/c1ccc2ccccc2c1`
Response line: class 0

Prompt line: Another compound to check: CC(=O)NCCC1CN(C(=O)/C=C\I)c2ccccc21 (configuration not stated)
Response line: class 0

Prompt line: Another compound to check: O=C(CCC(=O)C(C(=O)c1ccccc1)c1ccccc1)Nc1cccc(C(F)(F)F)c1 (configuration not stated)
Response line: class 0

Prompt line: Another compound to check: `C/C(=N\NC(=S)N1CCN(c2ccccn2)CC1)c1ccccn1`
Response line: class 0

Prompt line: Another compound to check: CC(=O)NC(CCCCNCc1ccccc1)C(=O)NCc1ccccc1 (configuration not stated)
Response line: class 0

Prompt line: Another compound to check: `Cc1nc(-c2cc3ccccc3oc2=O)cs1`
Response line: class 0

Prompt line: Another compound to check: NC(Cc1c[nH]c2cc([N+](=O)[O-])ccc12)C(=O)O (configuration not stated)
Response line: class 0

Prompt line: Another compound to check: `CSc1nc2[nH]c(=O)c(C)nc2c(=O)[nH]1`
Response line: class 0

Prompt line: Another compound to check: `c1ccc(/N=C2\SC3=NCCN3\C2=N/c2ccccc2)cc1`
Response line: class 0

* * *

- System: NCI-H226
- protocol description: NCI tumour cell line growth inhibition, 48 h
Active and inactive are the calls of the source. No stated cut-off is given here; in the data, active = GI50 up to about 1.1 µM and inactive = higher.
readout type: GI50

For orientation, consider the following solved cases.
> print(dat)
                                   molecule       reported.value
1  CC(O)(/C=C/c1ccccc1)P(=O)(O)c1ccccc1 (stereo not given)  > 100 µM (inactive)
2  CC(=O)OCC1OC(n2c(-c3ccc(C)cc3)cc(-c3ccco3)c(C#N)c2=S)C(OC(C)=O)C(OC(C)=O)C1OC(C)=O (stereo not given)   25.2 µM (inactive)
3  O=C1C(Br)=CC2(C=C1Br)CCNC1=C2C(=O)c2[nH]cnc2C1=O   20.4 µM (inactive)
4          O=c1[nH]nc(-c2ccccc2)n1-c1ccncc1  > 100 µM (inactive)
5  CN(C)Cc1cc(C(=O)/C=C/c2ccc(Cl)c(Cl)c2)cc(CN(C)C)c1O   3.77 µM (inactive)

Moving on to the next molecule.
Prompt line: Write down the reported GI50 of `O=C(CCc1nnc2s/c(=C\c3ccccc3[N+](=O)[O-])c(=O)n12)Nc1cc(Cl)c(Cl)cc1Cl` , test system: NCI-H226.
Response line: 16.4 µM (inactive)
